For each entry below, report its Relative light unit (RLU) value.
tested on: 293T cells; assay: Fluorescent detection of Fluc-mRNA (cell transfection efficiency of LNP formulations); format: cell-based; details: LNP formulation of Fluc-mRNA, 96-well plate, 24 hours
# unit: RLU | format: bare number

GET /value?item= CCCCCCCCC(CCCCCCCC)OC(=O)CCCCCN(CCCCCC(=O)OC(CCCCCCCC)CCCCCCCC)C[C@H](O)CN(CC)CCO &field=Relative light unit (RLU) returns 866536

GET /value?item= CCCCCCCCC(CCCCCCCC)OC(=O)CCCCCCCN(CCO)CCCCCCCC(=O)OCCC(CCCCCC)CCCCCC [Compound 21, reference compound] &field=Relative light unit (RLU) returns 1432170

GET /value?item= CCCCCCCCCCCOC(=O)CCCCCN(CCCC(=O)OCCCC(CCCCCCCCCC)CCCCCCCCCC)C[C@H](O)CN(C)CCO &field=Relative light unit (RLU) returns 626314

GET /value?item= CCCCCCCCC(CCCCCCCC)COC(=O)CCCCCN(CCCCCC(=O)OCC(CCCCCCCC)CCCCCCCC)C[C@H](O)CN(C)CCO &field=Relative light unit (RLU) returns 27408734

GET /value?item= CCCCCCCCCCC(CCCCCCCCCC)CCCOC(=O)CCCN(CCCC(=O)OCCCC(CCCCCCCCCC)CCCCCCCCCC)C[C@H](O)CN(C)CCO &field=Relative light unit (RLU) returns 4557420

GET /value?item= CCCCCCCCC(CCCCCCCC)OC(=O)CCCCCCCN(CCCCCCCC(=O)OC(CCCCCCCC)CCCCCCCC)C[C@H](O)CN(CC)CCO &field=Relative light unit (RLU) returns 547434

GET /value?item= CCCCCCCCC(CCCCCCCC)COC(=O)CCCCCN(CCCCCC(=O)OCC(CCCCCCCC)CCCCCCCC)C[C@H](O)CN(CC)CCO &field=Relative light unit (RLU) returns 20148450

GET /value?item= CCCCCCCCCCCOC(=O)CCCCCN(CCCCCC(=O)OCCCCCCCCCCC)C[C@H](O)CN(C)CCO &field=Relative light unit (RLU) returns 20686

GET /value?item= CCCCCCCCCCC(CCCCCCCCCC)CCCOC(=O)CCCN(CCCC(=O)OCCCC(CCCCCCCCCC)CCCCCCCCCC)C[C@H](O)CN(CCO)CCO &field=Relative light unit (RLU) returns 1403416

GET /value?item= CCCCCCCCCCOC(=O)CCCN(CCCCCC(=O)OCCC(CCCCCC)CCCCCC)C[C@H](O)CN(CC)CCO &field=Relative light unit (RLU) returns 125370

GET /value?item= CCCCCCCCC(CCCCCCCC)COC(=O)CCCCCN(CCCCCC(=O)OCC(CCCCCCCC)CCCCCCCC)C[C@H](O)CN(CCO)CCO &field=Relative light unit (RLU) returns 4810210

GET /value?item= CCCCCCCCC(CCCCCCCC)OC(=O)CCCCCN(CCCCCC(=O)OC(CCCCCCCC)CCCCCCCC)C[C@H](O)CN(CCO)CCO &field=Relative light unit (RLU) returns 11190068

GET /value?item= CCCCCCCCCCC(CCCCCCCCCC)CCCOC(=O)CCCN(CCCC(=O)OCCCC(CCCCCCCCCC)CCCCCCCCCC)C[C@H](O)CN(CC)CCO &field=Relative light unit (RLU) returns 1587188

GET /value?item= CCCCCCCCC(CCCCCCCC)OC(=O)CCCCCCCN(CCCCCCCC(=O)OC(CCCCCCCC)CCCCCCCC)C[C@H](O)CN(CCO)CCO &field=Relative light unit (RLU) returns 2702966
